Hey, just so you know, these numbers are from patent US20250353873A1.

Catalogue of APOE RNA (% UTC) readings, one per entry.
# Tested on: human APOE RNA
# test.method.notes: Dose-dependent inhibition of human APOE RNA in HepG2 cells, electroporation, 50,000 cells per well, RT-PCR normalized to GAPDH (Example 4, Tables 8-10)
# Type: cell-based
# condition.description: 8,000 nM; HepG2, electroporation, 16-hour treatment
Strand notation (5' to 3'): a small letter for the sugar, then the base; units joined by * are phosphorothioate-linked, units joined directly phosphodiester-linked; [ ] holds rarer units or linkages, { } end groups; capitals alone tell only the bases. [ms] = mesyl phosphoramidate linkage; e = 2'-O-(2-methoxyethyl) (MOE); k = constrained ethyl (cEt); [5mC] = 5-methylcytosine; d = 2'-deoxy (DNA)
A number alone suffices; assume % UTC.

The examples below pair each entry with its known result.
1757565 (eA*e[5mC]eTeTkG*dG*dT*dG*dA*dA*dT*d[5mC]*dT*dT*dT*eAeTeT*eA*eA; antisense) [Compound 1757565]; 55
1757554: mixed MOE/cEt gapmer TTGGTGAATCTTTATTAA, sugar kkeeeddddddddeeeee, linkages soossssssssssooss (kT*kTeGeG*eT*dG*dA*dA*dT*d[5mC]*dT*dT*dT*eAeTeT*eA*eA) [compound 1757554]; 28
1757568 (eA*e[5mC]eTeTeG*dG*dT*dG*dA*dA*dT*d[5mC]*dT*dT*dT*kAkTeT*eA*eA; antisense) [Compound 1757568]; 21
1757556: mixed MOE/cEt gapmer TTGGTGAATCTTTATTAA, sugar eeeeeddddddddekkee, linkages soossssssssssooss (eT*eTeGeG*eT*dG*dA*dA*dT*d[5mC]*dT*dT*dT*eAkTkT*eA*eA) [compound 1757556]; 35
1757567 (eA*e[5mC]eTeTeG*dG*dT*dG*dA*dA*dT*d[5mC]*dT*dT*dT*kAeTeT*eA*eA; antisense) [Compound 1757567]; 19

Request: Which APOE RNA (% UTC) value belongs to 1757572 (eA*e[5mC]eTeT*kG*kG*dT*dG[ms]dA[ms]dA[ms]dT*d[5mC]*dT*dT*dT*dA[ms]eT*eT*eA*eA; antisense) [Compound 1757572] ?
Response: 26

Request: Which APOE RNA (% UTC) value belongs to 1757562: mixed MOE/cEt gapmer TTGGTGAATCTTTATTAA, sugar eeeekddddddddkkeee, linkages soossssssssssooss (eT*eTeGeG*kT*dG*dA*dA*dT*d[5mC]*dT*dT*dT*kAkTeT*eA*eA) [compound 1757562] ?
Response: 28

Request: Which APOE RNA (% UTC) value belongs to 1757575 (eA*e[5mC]eTeT*kG*kG*dT*dG[ms]dA[ms]dA[ms]dT*d[5mC]*dT*dT*dT*dA[ms]kT*eT*eA*eA; antisense) [Compound 1757575] ?
Response: 25

Request: Which APOE RNA (% UTC) value belongs to 1757564: mixed MOE/cEt gapmer TTGGTGAATCTTTATTAA, sugar eeeekddddddddkeeke, linkages soossssssssssooss (eT*eTeGeG*kT*dG*dA*dA*dT*d[5mC]*dT*dT*dT*kAeTeT*kA*eA) [compound 1757564] ?
Response: 22

Request: Which APOE RNA (% UTC) value belongs to 1757570 (eA*e[5mC]eTeTkG*dG*dT*dG*dA*dA*dT*d[5mC]*dT*dT*dT*kAkTeT*eA*eA; antisense) [Compound 1757570] ?
Response: 18

Request: Which APOE RNA (% UTC) value belongs to 1757544: mixed MOE/cEt gapmer TTGGTGAATCTTTATTAA, sugar ekeeeddddddddeeeee, linkages soossssssssssooss (eT*kTeGeG*eT*dG*dA*dA*dT*d[5mC]*dT*dT*dT*eAeTeT*eA*eA) [compound 1757544] ?
Response: 26

Request: Which APOE RNA (% UTC) value belongs to 1757574 (eA*e[5mC]eTeT*eG*eG*dT*dG[ms]dA[ms]dA[ms]dT*d[5mC]*dT*dT*dT*dA[ms]kT*kT*eA*eA; antisense) [Compound 1757574] ?
Response: 19

Request: Which APOE RNA (% UTC) value belongs to 1766559 (eT*eTeGeGeT*dG[ms]dA[ms]dA[ms]dT*d[5mC]*dT*dT*dT[ms]dA[ms]dT*kTkAeA*eA*e[5mC]; antisense) [Compound 1766559] ?
Response: 35

Request: Which APOE RNA (% UTC) value belongs to 1757557: mixed MOE/cEt gapmer TTGGTGAATCTTTATTAA, sugar eeeeeddddddddeekke, linkages soossssssssssooss (eT*eTeGeG*eT*dG*dA*dA*dT*d[5mC]*dT*dT*dT*eAeTkT*kA*eA) [compound 1757557] ?
Response: 36

====

# Test system: human APOE RNA
# test.method.notes: Duration of action study in APOE C57BL/6NTac-Apoeem7250 knock-in mice (Example 16)
# Type: in vivo
# condition.description: cortex; 300 μg ICV; 7 days post-dose
Strand notation (5' to 3'): a small letter for the sugar, then the base; units joined by * are phosphorothioate-linked, units joined directly phosphodiester-linked; [ ] holds rarer units or linkages, { } end groups; capitals alone tell only the bases. [ms] = mesyl phosphoramidate linkage; e = 2'-O-(2-methoxyethyl) (MOE); k = constrained ethyl (cEt); [5mC] = 5-methylcytosine; d = 2'-deoxy (DNA)
readout.label: APOE RNA (% control) Cortex
A number alone suffices; assume % control.

The examples below pair each entry with its known result.
TezTeoGeoGksTdsGdzAdzAdzTds^mCdsTdsTdsTdsAdzTksTksAesAesAes^mCe (antisense eT[ms]eTeGkG*dT*dG[ms]dA[ms]dA[ms]dT*d[5mC]*dT*dT*dT*dA[ms]kT*kT*eA*eA*eA*e[5mC]) [Compound No. 1809814]; 62
Aks^mCeoTeoTesGesGksTdsGdzAdzAdzTds^mCdsTdsTdsTdsAdzTksTksAesAe (kA*e[5mC]eTeT*eG*kG*dT*dG[ms]dA[ms]dA[ms]dT*d[5mC]*dT*dT*dT*dA[ms]kT*kT*eA*eA) [Compound No. 1809635]; 40
Aes^mCeoTeoTesGesGksTdsGdzAdzAdzTds^mCdsTdsTdsTdsAdzTksTksAesAe (eA*e[5mC]eTeT*eG*kG*dT*dG[ms]dA[ms]dA[ms]dT*d[5mC]*dT*dT*dT*dA[ms]kT*kT*eA*eA) [Compound No. 1757576]; 45

Kindly review the next substance as well.
Request: Which APOE RNA (% control) Cortex value belongs to ^mCksTksTksGdzGdzTdzGdzAdzAdzTds^mCdsTdsTdsTdsAdsTdsTksAksAdzAk (antisense k[5mC]*kT*kT*dG[ms]dG[ms]dT[ms]dG[ms]dA[ms]dA[ms]dT*d[5mC]*dT*dT*dT*dA*dT*kT*kA*dA[ms]kA) [Compound No. 1785602] ?
Response: 40

====

Catalogue of APOE RNA (% UTC) readings, one per entry.
# System: human APOE RNA
# test.method.notes: Dose-dependent inhibition of human APOE RNA in HepG2 cells, electroporation, 50,000 cells per well, RT-PCR normalized to GAPDH (Example 4, Tables 8-10)
# Format: cell-based
# condition.description: 1,280 nM; HepG2, electroporation, 24-hour treatment
# Protocol: Modified oligonucleotides selected from the examples above were tested at various doses in HepG2 cells. The modified oligonucleotides were tested in a series of experiments that had the same culture conditions. Each experiment is identified in separate tables below. HepG2 cells plated at a density of 50,000 cells per well were treated by electroporation with various concentrations of modified oligonucleotide as specified in the tables below. […]
Strand notation (5' to 3'): a small letter for the sugar, then the base; units joined by * are phosphorothioate-linked, units joined directly phosphodiester-linked; [ ] holds rarer units or linkages, { } end groups; capitals alone tell only the bases. [ms] = mesyl phosphoramidate linkage; k = constrained ethyl (cEt); [5mC] = 5-methylcytosine; d = 2'-deoxy (DNA)
A number alone suffices; assume % UTC.

The examples below pair each entry with its known result.
1747050 (k[5mC]*kT*kT*dG[ms]dG[ms]kT*dG[ms]dA[ms]dA[ms]dT*d[5mC]*dT*dT*dT*dA[ms]dT*kT*dA[ms]dA[ms]kA; antisense) [Compound 1747050]; 49
1746787 (k[5mC]*kT*dT[ms]dG[ms]dG[ms]kT*dG[ms]dA[ms]dA[ms]dT*d[5mC]*dT*dT*dT*dA[ms]dT*kT*kA*dA[ms]kA; antisense) [Compound 1746787]; 56
1746796 (k[5mC]*kT*dT[ms]dG[ms]kG*dT[ms]dG[ms]dA[ms]dA[ms]dT*d[5mC]*dT*dT*dT*dA[ms]dT*kT*dA[ms]kA*kA; antisense) [Compound 1746796]; 71

Request: Which APOE RNA (% UTC) value belongs to 1746794 (k[5mC]*kT*kT*dG[ms]dG[ms]dT[ms]dG[ms]dA[ms]dA[ms]dT*d[5mC]*dT*dT*dT*dA[ms]dT*kT*dA[ms]kA*kA; antisense) [Compound 1746794] ?
Response: 37
